test system: B16-F10 murine melanoma cell line; assay: Cytotoxicity (MTT) in B16-F10 murine melanoma cells; format: cell-based; conditions: 200 μM, 48 h
// classify(record): look up Cytotoxicity study in B16F10 cells, % viability in ranges lo (below 80%), med (80% to below 90%), hi (90% or more)

State the band of CCC(O)CNC(=O)/C=C/c1ccc(C)cc1 (centres unmarked) [Compound A-63]
med

State the band of Cc1ccc(/C=C/C(=O)NC(C)CO)cc1 (centres unmarked) [Compound A-69]
hi

State the band of CCC(CO)NC(=O)/C=C/c1ccc(Cl)cc1 (centres unmarked) [Compound A-01]
hi

State the band of O=C(/C=C/c1ccc(Cl)cc1Cl)NCCCO [H-296/20]
lo

State the band of CCC(CO)NC(=O)/C=C/c1ccc(Cl)cc1Cl (centres unmarked) [H-285/20]
lo

State the band of O=C(/C=C/c1ccc(Cl)cc1)NCCCCO [H-331/21]
lo

State the band of O=C(/C=C/c1ccccc1)NCCCCO [Compound A-43]
hi

State the band of O=C(/C=C/c1ccc(Cl)cc1)NCCCO [H-330/21]
med

State the band of CCC(CO)NC(=O)/C=C/c1ccc(C)cc1 (centres unmarked) [H-409/21]
hi

State the band of O=C(/C=C/c1ccc(Cl)cc1Cl)NCCCCO [H-298/20]
lo

State the band of CC(CO)NC(=O)/C=C/c1ccc(Cl)cc1 (centres unmarked) [Compound A-102]
med

State the band of O=C(/C=C/c1ccc(Cl)cc1)NCCCCCO [Compound A-111]
hi

State the band of O=C(/C=C/c1ccc(Cl)cc1)NCCCCCCO [H-426/21]
lo

State the band of O=C(/C=C/c1ccccc1)NCCCCCCO [H-425/21]
hi

State the band of O=C(/C=C/c1ccc(Cl)cc1)N1CCC(O)CC1 [Compound A-99]
hi

State the band of O=C(/C=C/c1ccc(Cl)cc1Cl)N1CCC(O)CC1 [H-310/20]
hi

State the band of O=C(/C=C/c1ccccc1)NCCCCCO [Compound A-133]
hi

----------
Please go through the items and note down their Increase in the number of yellow wells compared to the reference level, E. coli WP2.
system: E. coli WP2; experiment: Ames microplate test, E. coli WP2; conditions: 0.5 mM, without S9;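 note: bacteria exposed to compound for 90 min at 37 °C in 24-well plates, then transferred with indicator medium to 384-well plates and incubated 48 h before yellow well counting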
Answer with the value's number alone.

Entry O=C(/C=C/c1ccc(Cl)cc1)NCCCCCO under E. coli WP2 had Increase in the number of yellow wells compared to the reference level, E. coli WP2 of 1.46

Entry O=C(/C=C/c1ccccc1)NCCCCCCO under E. coli WP2 had Increase in the number of yellow wells compared to the reference level, E. coli WP2 of 0.17

Entry CC(CO)NC(=O)/C=C/c1ccc(Cl)cc1 (stereo not drawn) under E. coli WP2 had Increase in the number of yellow wells compared to the reference level, E. coli WP2 of 0.48

Entry CCC(O)CNC(=O)/C=C/c1ccc(Cl)cc1 (stereo not drawn) under E. coli WP2 had Increase in the number of yellow wells compared to the reference level, E. coli WP2 of 0.50

Entry O=C(/C=C/c1ccccc1)NCCCCCO under E. coli WP2 had Increase in the number of yellow wells compared to the reference level, E. coli WP2 of 0.73

Entry Cc1ccc(/C=C/C(=O)NCCCCCO)cc1 under E. coli WP2 had Increase in the number of yellow wells compared to the reference level, E. coli WP2 of 0.64
